Sourced from PubChem BioAssay (NCI)

# Tested on: MALME-3M melanoma
# assay_overview: NCI tumour cell line growth inhibition, 48 h
property_label: GI50

molecule: CC(=O)O[C@H]([C@H](OC(C)=O)[C@H](C)OC(C)=O)[C@@H](/C=C/[C@@H]1CC=CC(=O)O1)OC(C)=O
target_or_system: MALME-3M melanoma
val: > 100 µM
--
molecule: CSCS(=O)C[C@H](CO)NC(=O)/C=C/c1c(C)[nH]c(=O)[nH]c1=O (stereo not given in full)
target_or_system: MALME-3M melanoma
val: 1.08 µM
--
molecule: CSC(=NC#N)S/C=C/C(=O)c1ccccc1
target_or_system: MALME-3M melanoma
val: 31.2 µM
--
molecule: NCCc1ccc(S(=O)(=O)F)cc1
target_or_system: MALME-3M melanoma
val: 96.5 µM
--
molecule: CCCc1n(Cc2ccc3ccccc3c2)cc[n+]1Cc1ccc2ccccc2c1
target_or_system: MALME-3M melanoma
val: 0.876 µM
